Subject Of Test: VEGFR2 (Homo sapiens)
Assay Comment: Kinase activity test (ReactionBiology), % enzyme activity relative to DMSO
Type: biochemical
Design: purchased ReactionBiology
Condition Summary: VEGFR2; 1 uM; replicate Data 1; read-out: % Enzyme Activity (relative to DMSO controls), Data 1
Result Type: remaining activity at 1 µM (%)
Give the value in % but do not write % after it.

Observe how each entry below is paired with its result.
N[C@@H](CC(=O)N1CCn2c(nnc2C(F)(F)F)C1)Cc1cc(F)c(F)cc1F [Sitagliptin] ... 100
Cc1cccc(C)c1OCC(=O)N[C@@H](Cc1ccccc1)[C@@H](O)C[C@H](Cc1ccccc1)NC(=O)[C@H](C(C)C)N1CCCNC1=O [Lopinavir, reference compound] ... 106
CS(=O)(=O)c1ccc(C(=O)Nc2ccc(Cl)c(-c3ccccn3)c2)c(Cl)c1 [Vismodegib] ... 103

Turning now to a further record.
I'd like to know its remaining activity at 1 µM. The compound in question is Nc1ncnc2c1ncn2[C@@H]1O[C@H](CO)[C@@H](O)[C@H]1O [Adenosine, reference compound]
111

---

Subject Of Test: EPHB4 (Homo sapiens)
Construct: purchased ReactionBiology
Sequence (P54760 16-987): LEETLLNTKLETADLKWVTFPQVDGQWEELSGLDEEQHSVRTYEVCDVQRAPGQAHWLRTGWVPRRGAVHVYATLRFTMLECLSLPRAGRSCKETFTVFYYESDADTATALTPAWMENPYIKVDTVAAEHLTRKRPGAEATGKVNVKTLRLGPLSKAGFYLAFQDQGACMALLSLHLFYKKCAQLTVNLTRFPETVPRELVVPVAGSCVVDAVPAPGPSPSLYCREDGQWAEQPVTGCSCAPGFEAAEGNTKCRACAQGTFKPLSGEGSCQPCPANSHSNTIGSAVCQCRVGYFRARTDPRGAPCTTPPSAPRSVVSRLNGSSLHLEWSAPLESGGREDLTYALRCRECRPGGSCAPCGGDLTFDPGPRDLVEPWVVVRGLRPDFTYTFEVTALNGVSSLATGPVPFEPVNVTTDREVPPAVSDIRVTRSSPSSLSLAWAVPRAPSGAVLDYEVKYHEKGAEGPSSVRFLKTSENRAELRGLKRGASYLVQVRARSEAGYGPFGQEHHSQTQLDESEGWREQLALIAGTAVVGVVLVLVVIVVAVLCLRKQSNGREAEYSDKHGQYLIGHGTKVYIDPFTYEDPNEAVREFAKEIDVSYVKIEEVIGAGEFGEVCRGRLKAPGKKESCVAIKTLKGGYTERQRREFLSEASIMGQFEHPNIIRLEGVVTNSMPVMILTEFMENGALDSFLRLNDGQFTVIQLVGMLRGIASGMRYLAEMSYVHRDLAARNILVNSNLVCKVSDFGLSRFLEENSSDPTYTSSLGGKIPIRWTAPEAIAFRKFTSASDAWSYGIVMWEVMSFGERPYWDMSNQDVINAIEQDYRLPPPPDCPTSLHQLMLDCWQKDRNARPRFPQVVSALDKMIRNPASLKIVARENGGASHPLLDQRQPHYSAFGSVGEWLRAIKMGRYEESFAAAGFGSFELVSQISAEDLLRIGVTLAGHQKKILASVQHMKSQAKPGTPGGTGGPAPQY
Assay Comment: Kinase activity test (ReactionBiology), % enzyme activity relative to DMSO;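 on % Enzyme Activity (relative to DMSO controls), Data 2: EPHB4 was one of ten selected kinases in the screening panel, with enzyme activity expressed as a percentage of DMSO controls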
Type: biochemical
Condition Summary: EPHB4; 1 uM; replicate Data 2; read-out: % Enzyme Activity (relative to DMSO controls), Data 2
The compounds listed here are annotated with their remaining activity at 1 µM.
Give the value in % but do not write % after it.

Observe how each entry below is paired with its result.
CC(=O)O[C@H]1C[C@@]2(C)[C@@H](C[C@@H](O)[C@H]3[C@@]4(C)CC[C@@H](O)[C@@H](C)[C@@H]4CC[C@@]32C)/C1=C(\CCC=C(C)C)C(=O)O ... 101
NCCCCCC(=O)O ... 104
CC(C)c1nc(CN(C)C(=O)N[C@H](C(=O)N[C@@H](Cc2ccccc2)C[C@H](O)[C@H](Cc2ccccc2)NC(=O)OCc2cncs2)C(C)C)cs1 [Ritonavir, reference compound] ... 98.9
Oc1cc(Cl)ccc1Oc1ccc(Cl)cc1Cl [Triclosan, reference compound] ... 99.9
NC(=O)c1cccnc1 [Niacinamide, reference compound] ... 69.6

Lab note: need remaining activity at 1 µM with EPHB4 (Homo sapiens) for entry Nc1ncnc2c1ncn2[C@@H]1O[C@H](CO)[C@@H](O)[C@H]1O [Adenosine, reference compound] , please look it up.
102

Try O=C(O)c1ccccc1O next.
102

Try Cc1cccc(C)c1OCC(=O)N[C@@H](Cc1ccccc1)[C@@H](O)C[C@H](Cc1ccccc1)NC(=O)[C@H](C(C)C)N1CCCNC1=O [Lopinavir, reference compound] next.
89.7

Try C[C@]12CC[C@@H]3c4ccc(O)cc4CC[C@H]3[C@@H]1CC[C@@H]2O [Estradiol, reference compound] next.
100

---

Subject Of Test: VEGFR2 (Homo sapiens)
Assay Comment: Kinase activity test (ReactionBiology), % enzyme activity relative to DMSO
Type: biochemical
Set-up: purchased ReactionBiology
Condition Summary: VEGFR2; 1 uM; Average
The compounds listed here are annotated with their % Enzyme Activity (relative to DMSO controls), Average.
Give the value in % but do not write % after it.

COc1ccc2c(c1)c(CC(=O)O)c(C)n2C(=O)c1ccc(Cl)cc1 [Iomethacin] ... 105.43

I'd like to know its % Enzyme Activity (relative to DMSO controls), Average. The compound in question is CCc1nc(N)nc(N)c1-c1ccc(Cl)cc1 [Pyrimethamine]
107.43

Try C[C@]12CCC(=O)C=C1CC[C@@H]1[C@@H]2[C@@H](O)C[C@@]2(C)[C@H]1CC[C@]2(O)C(=O)CO [Hydrocortisone] next.
99.23

Try Cc1nc(=O)c2cc(CN(C)c3ccc(C(=O)N[C@@H](CCC(=O)O)C(=O)O)s3)ccc2[nH]1 [Raltitrexed] next.
107.68

Try Oc1ccc(O)cc1 [Hydroquinone] next.
108.33

Try CCCCC1C(=O)N(c2ccccc2)N(c2ccccc2)C1=O [Phenylbutazone] next.
106.05

Try CNCCCN1c2ccccc2CCc2ccccc21 [Desipramine] next.
96.96

Try COc1cccc2c1C(=O)c1c(O)c3c(c(O)c1C2=O)C[C@@](O)(C(=O)CO)C[C@@H]3O[C@H]1C[C@H](N)[C@H](O)[C@H](C)O1 [Doxorubicin] next.
110.51

---

Subject Of Test: NEK2 (Homo sapiens, UniProt P51955)
Construct: purchased ReactionBiology
Sequence (P51955 1-445): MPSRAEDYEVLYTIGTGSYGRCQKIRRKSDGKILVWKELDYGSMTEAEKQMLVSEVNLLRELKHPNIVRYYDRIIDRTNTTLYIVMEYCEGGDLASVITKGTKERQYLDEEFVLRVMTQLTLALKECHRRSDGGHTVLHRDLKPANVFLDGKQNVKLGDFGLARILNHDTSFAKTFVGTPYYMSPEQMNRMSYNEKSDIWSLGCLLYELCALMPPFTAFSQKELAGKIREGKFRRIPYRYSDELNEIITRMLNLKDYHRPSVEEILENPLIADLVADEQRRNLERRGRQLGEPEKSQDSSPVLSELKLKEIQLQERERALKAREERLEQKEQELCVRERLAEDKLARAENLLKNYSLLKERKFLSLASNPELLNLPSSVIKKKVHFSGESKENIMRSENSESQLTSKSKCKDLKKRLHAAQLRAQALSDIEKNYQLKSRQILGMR
Assay Comment: Kinase activity test (ReactionBiology), % enzyme activity relative to DMSO;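 on % Enzyme Activity (relative to DMSO controls), Data 1: FDA-approved drugs chosen by structure-based repositioning, each screened at 10 or 1 µM for kinase activity, expressed as percent of DMSO controls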
Assay type: biochemical
Condition Summary: NEK2; compound at 10 uM; replicate 1
The molecules listed here are annotated with their % Enzyme Activity (relative to DMSO controls), Data 1.
Give the value in % but do not write % after it.

Observe how each entry below is paired with its result.
c1coc(CNc2ncnc3[nH]cnc23)c1 ... 94.51
CC(=O)OCC1=C(C(=O)O)N2C(=O)[C@@H](NC(=O)Cc3cccs3)[C@H]2SC1 ... 86.91
OC[C@@H](O)[C@@H](O)[C@H](O)[C@H](O)CO ... 100.39
Cc1ccc(C(=O)c2ccc(CC(=O)O)n2C)cc1 ... 112.71

I'd like to know its % Enzyme Activity (relative to DMSO controls), Data 1. The molecule in question is Nc1nc2c(ncn2COC(CO)CO)c(=O)[nH]1
97.24

---

Subject Of Test: CK1d (Homo sapiens, UniProt P48730)
Construct: purchased ReactionBiology
Sequence (P48730 whole entry): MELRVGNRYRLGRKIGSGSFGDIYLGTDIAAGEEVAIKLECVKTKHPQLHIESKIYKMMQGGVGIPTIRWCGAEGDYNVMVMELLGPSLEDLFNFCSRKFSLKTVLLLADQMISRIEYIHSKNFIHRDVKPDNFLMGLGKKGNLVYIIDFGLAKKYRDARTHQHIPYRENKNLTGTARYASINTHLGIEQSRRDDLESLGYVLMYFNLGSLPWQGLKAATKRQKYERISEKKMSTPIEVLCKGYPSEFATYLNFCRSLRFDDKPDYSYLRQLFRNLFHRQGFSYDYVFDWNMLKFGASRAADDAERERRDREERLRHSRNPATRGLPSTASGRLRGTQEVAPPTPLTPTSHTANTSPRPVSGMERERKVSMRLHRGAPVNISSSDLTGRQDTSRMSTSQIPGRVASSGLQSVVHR
Assay Comment: Kinase activity test (ReactionBiology), % enzyme activity relative to DMSO
Format: biochemical
Condition Summary: CK1d; 10 uM; Average; read-out: % Enzyme Activity (relative to DMSO controls), Average
Result Type: remaining activity at 10 µM (%)
Give the value in % but do not write % after it.

Observe how each entry below is paired with its result.
C[C@]12CC[C@@H]3c4ccc(O)cc4CC[C@H]3[C@@H]1CC[C@@H]2O [Estradiol, reference compound] ... 96.5
CC/C(=C(/CC)c1ccc(O)cc1)c1ccc(O)cc1 [Diethylstilbestrol, reference compound] ... 84.8

Turning now to a further record.
I'd like to know its remaining activity at 10 µM. The molecule in question is CC(=O)O[C@H]1C[C@@]2(C)[C@@H](C[C@@H](O)[C@H]3[C@@]4(C)CC[C@@H](O)[C@@H](C)[C@@H]4CC[C@@]32C)/C1=C(\CCC=C(C)C)C(=O)O
111

---

Subject Of Test: VEGFR2 (Homo sapiens, UniProt P35968)
Sequence (P35968 20-1356): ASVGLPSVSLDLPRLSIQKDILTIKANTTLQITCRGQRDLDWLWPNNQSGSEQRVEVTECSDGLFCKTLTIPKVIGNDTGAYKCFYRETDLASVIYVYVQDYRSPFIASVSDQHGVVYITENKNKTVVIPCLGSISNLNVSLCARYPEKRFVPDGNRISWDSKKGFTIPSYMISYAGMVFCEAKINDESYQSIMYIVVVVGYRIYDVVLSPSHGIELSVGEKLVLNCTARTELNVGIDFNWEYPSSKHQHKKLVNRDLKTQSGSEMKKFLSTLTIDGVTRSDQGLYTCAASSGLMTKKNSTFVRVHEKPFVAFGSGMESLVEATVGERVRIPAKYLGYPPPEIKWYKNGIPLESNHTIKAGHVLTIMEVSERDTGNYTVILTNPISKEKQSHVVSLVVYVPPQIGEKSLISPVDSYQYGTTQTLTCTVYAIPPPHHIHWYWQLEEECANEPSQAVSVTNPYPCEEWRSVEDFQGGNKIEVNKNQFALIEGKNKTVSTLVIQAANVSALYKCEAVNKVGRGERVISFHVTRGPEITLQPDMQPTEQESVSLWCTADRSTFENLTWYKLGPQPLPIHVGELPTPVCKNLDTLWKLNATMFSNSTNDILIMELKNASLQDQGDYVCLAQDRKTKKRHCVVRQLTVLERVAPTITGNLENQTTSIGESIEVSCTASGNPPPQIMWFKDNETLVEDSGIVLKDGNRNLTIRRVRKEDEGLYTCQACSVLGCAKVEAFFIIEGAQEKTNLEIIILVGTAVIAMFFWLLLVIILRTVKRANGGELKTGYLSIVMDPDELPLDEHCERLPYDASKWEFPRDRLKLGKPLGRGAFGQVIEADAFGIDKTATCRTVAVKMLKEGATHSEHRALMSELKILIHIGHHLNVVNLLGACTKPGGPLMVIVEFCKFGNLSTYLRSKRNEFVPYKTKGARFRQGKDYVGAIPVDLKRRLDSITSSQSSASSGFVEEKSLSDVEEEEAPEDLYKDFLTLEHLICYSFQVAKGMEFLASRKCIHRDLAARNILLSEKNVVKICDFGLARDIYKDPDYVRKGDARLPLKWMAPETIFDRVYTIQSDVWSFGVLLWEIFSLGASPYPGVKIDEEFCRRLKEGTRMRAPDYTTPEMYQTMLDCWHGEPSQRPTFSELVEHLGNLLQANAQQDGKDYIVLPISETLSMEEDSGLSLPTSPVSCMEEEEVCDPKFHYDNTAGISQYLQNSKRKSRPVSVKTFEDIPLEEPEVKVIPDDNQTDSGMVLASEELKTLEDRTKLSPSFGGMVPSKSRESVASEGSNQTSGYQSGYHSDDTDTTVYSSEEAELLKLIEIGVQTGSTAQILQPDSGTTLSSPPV
Assay Comment: Kinase activity test (ReactionBiology), % enzyme activity relative to DMSO
Format: biochemical
Set-up: purchased ReactionBiology
Condition Summary: VEGFR2; 10 uM; replicate Data 2; read-out: % Enzyme Activity (relative to DMSO controls), Data 2
Result Type: remaining activity at 10 µM (%)
Give the value in % but do not write % after it.

Cc1ccc(C(=O)Nc2ccc(S(=O)(=O)O)c3cc(S(=O)(=O)O)cc(S(=O)(=O)O)c23)cc1NC(=O)c1cccc(NC(=O)Nc2cccc(C(=O)Nc3cc(C(=O)Nc4ccc(S(=O)(=O)O)c5cc(S(=O)(=O)O)cc(S(=O)(=O)O)c45)ccc3C)c2)c1 [Suramin, reference compound] ... 5.94
N[C@@H](CC(=O)N1CCn2c(nnc2C(F)(F)F)C1)Cc1cc(F)c(F)cc1F [Sitagliptin] ... 100
N[C@@H](Cc1cc(I)c(Oc2cc(I)c(O)c(I)c2)c(I)c1)C(=O)O [Thyroxine, reference compound] ... 83.5

I'd like to know its remaining activity at 10 µM. The compound in question is CC(=O)O[C@H]1C[C@@]2(C)[C@@H](C[C@@H](O)[C@H]3[C@@]4(C)CC[C@@H](O)[C@@H](C)[C@@H]4CC[C@@]32C)/C1=C(\CCC=C(C)C)C(=O)O [Fusidic acid]
105

Try C[C@]12CC[C@@H]3c4ccc(O)cc4CC[C@H]3[C@@H]1CC[C@@H]2O [Estradiol, reference compound] next.
103

Try Cc1cc(C#N)cc(C)c1Oc1nc(Nc2ccc(C#N)cc2)nc(N)c1Br [Etravirine, reference compound] next.
39.5
